Biological target: Dual specificity protein phosphatase 6 (Homo sapiens)
Experiment: DUSP6 inhibitors restoring Erk phosphorylation by chemical complementation, primary imaging in DUSP6-transfected HeLa (AID 609);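 also: phospho-Erk level distribution per well compared with pooled transfected vehicle control wells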
Details: HeLa MKP-3 transfected, phospho-Erk imaging KS statistic; at 10 µM; hits give high values; cells stimulated with TPA for 15 min
Assay metric: inhibition (%)
Numbers only here, please. The scale is %.

[[record]]
compound = "CC(=O)OCC(=O)[C@@]12OC(C)(C)O[C@@H]1C[C@H]1[C@@H]3C[C@H](F)C4=CC(=O)C=C[C@]4(C)[C@@]3(F)[C@@H](O)C[C@@]12C"
result_number = -2.46


Here is the next item to consider.
[in] Query inhibition on Dual specificity protein phosphatase 6 (Homo sapiens) for `Cn1cc(Br)cc2nc(C(F)(F)F)nc1-2`
[out] 29.7
